Just for reference, paper PMC10820826 is where these values come from.

TESTED_SYSTEM: T1, Munc18-1-His (rat, UniProt P61765 1-594)
T1 construct: Munc18-1 (STXBP1); also called Munc18a; STXBP1; source: E. coli Rosetta BL21 (DE3), purified to homogeneity as described by Hu et al
T1 sequence (P61765 whole entry): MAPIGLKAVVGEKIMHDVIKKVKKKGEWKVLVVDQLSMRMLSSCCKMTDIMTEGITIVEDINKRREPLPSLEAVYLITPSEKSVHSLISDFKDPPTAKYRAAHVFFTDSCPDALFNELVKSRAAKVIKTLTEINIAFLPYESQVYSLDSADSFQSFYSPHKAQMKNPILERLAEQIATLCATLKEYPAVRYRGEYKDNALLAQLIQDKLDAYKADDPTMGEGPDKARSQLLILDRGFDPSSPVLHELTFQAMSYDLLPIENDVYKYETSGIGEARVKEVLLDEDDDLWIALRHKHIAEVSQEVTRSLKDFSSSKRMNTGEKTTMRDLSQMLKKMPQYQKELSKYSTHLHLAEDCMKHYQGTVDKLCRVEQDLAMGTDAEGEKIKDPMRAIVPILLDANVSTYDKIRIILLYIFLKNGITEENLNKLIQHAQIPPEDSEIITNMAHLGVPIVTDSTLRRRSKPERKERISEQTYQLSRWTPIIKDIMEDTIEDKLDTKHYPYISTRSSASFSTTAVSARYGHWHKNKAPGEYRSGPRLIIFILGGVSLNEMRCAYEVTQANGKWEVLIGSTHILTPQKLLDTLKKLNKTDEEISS
RECORDED_CONDITIONS: both partners purified
READOUT_TYPE: stoichiometry N

Some entries whose results are on file:
BINDER: PYPRMDEEEQEEDIDQIVAEVKQEMEEQEL (human Mint1 residues 257-286 with phosphomimetic Glu; source: synthetic peptide, bought: Genscript) [Mint1_3 peptide (257-286 phosphomimic)]
ENDPOINT_VALUE: 1.1
--
BINDER: MDSYEQEEDIDQIVAEVKQS (source: synthetic peptide, bought: Genscript) [Mint1_7 peptide (261-280)]
ENDPOINT_VALUE: 1
--
BINDER: QEEDIDQIVAEVKQSMS (source: synthetic peptide, bought: Genscript) [Mint1_1c peptide (266-282)]
ENDPOINT_VALUE: 1
--
BINDER: EEDIDQIVAEVKQSMS (source: synthetic peptide, bought: Genscript) [Mint1_6 peptide (267-282)]
ENDPOINT_VALUE: 1.2
--
BINDER: SYEQEEDIDQIVAEVKQSMS (source: synthetic peptide, bought: Genscript) [Mint1_4 peptide (263-282)]
ENDPOINT_VALUE: 1.3

[1] PYPRMDSYEQEEDIDQIVAEVKQSMSSQSL (human Mint1 residues 257-286; source: synthetic peptide, bought: Genscript) [Mint1_2 peptide (257-286)]
[2] MDSYEQEEDIDQIVAEVKQSMS (also called Mint1_1; Mint1 AHM peptide; source: synthetic peptide, bought: Genscript) [Mint1 (261-282) synthetic peptide]
# input Would you mind telling me which has the lower recorded stoichiometry N between 1 and 2 ? Please identify the chosen entry by its label.
# output 2
(2: 0.8, 1: 1.3)
